Tested on: bovine cardiac myofibrils
Assay: Myofibril assay: PK/LDH-coupled steady-state ATPase activity of skinned bovine cardiac myofibrils
Type: biochemical
Settings: Ca2+ activating to 75% of maximal rate
Property Measured: CDMF75 IC15 (µM)

COc1ccc(N2CC(=O)N(Cc3ccc(Cl)cc3)[C@]3(CCN(C(C)=O)C3)C2=O)nc1
29.6
O=C1CN(c2ncc(Cl)cc2F)C(=O)C2(CC3(COC3)C2)N1Cc1ccc(C(F)F)cc1
0.8

1 = CC(C)N1CC(=O)N(Cc2cccc(C#N)c2)C(c2ccc(Cl)cc2)C1=O (stereo not shown)
2 = CNC(=O)N1CC2(C1)C(=O)N(c1ccc(Cl)c(F)c1)CC(=O)N2Cc1ccc(C(F)(F)F)cc1
Query: Of 1 and 2 , whose reported CDMF75 IC15 is the larger number? Response format: the label of the selected entry.
Result: 1

* * *

Test system: bovine cardiac myofibrils
Assay: Myofibril assay: PK/LDH-coupled steady-state ATPase activity of skinned bovine cardiac myofibrils
Format: biochemical
Conditions: Ca2+ activating to 75% of maximal rate
Property Measured: CDMF75 IC15 (µM)

Look over these answered cases.
CNC(=O)N1CC2(C1)C(=O)N(c1ccc(C#N)cc1F)CC(=O)N2Cc1ccc(C(F)(F)F)cc1
0.2
N#Cc1ccc(N2CC(=O)N(Cc3ccc(C(F)(F)F)cc3)C3(CN(C(=O)NC4CC4)C3)C2=O)cc1F
2.3
CC(C)N1CC(=O)N(Cc2ccc(Cl)cc2)C2(CN(c3ccc(F)cn3)C2)C1=O
1.7
CC(C)N1CC(=O)N(Cc2ccc(C(F)(F)F)cc2)C2(CN(C(N)=O)C2)C1=O
9.2
CC(C)N1CC(=O)N(Cc2ccc(Cl)cc2)C(c2ccc(Cl)cc2)C1=O (racemic) [Compound 288]
1.8
N#Cc1ccc(N2CC(=O)N(Cc3ccc(C(F)(F)F)cc3)[C@]3(CCN(C(=O)C4CCC4)C3)C2=O)c(F)c1
0.9

A = O=C1C(CC2COC2)N(Cc2ccc(C(F)(F)F)cc2)C(=O)CN1c1ncc(Cl)cc1F (stereo not shown)
B = CC(C)N1CC(=O)N(C(C)c2ccc(C(F)(F)F)cc2)C2(CN(c3ccccn3)C2)C1=O (stereo not shown)
C = CNC(=O)N1CC2(C1)C(=O)N(c1ncc(Cl)cc1F)CC(=O)N2[C@@H](C)c1ccc(Cl)cc1
Query: # desc sort on CDMF75 IC15 across 3 molecules List each label, following the requested order.
Result: B, C, A

1 = CNC(=O)N1CC2(C1)C(=O)N(c1ccc(C#N)cc1F)CC(=O)N2Cc1ccc(C2(C(F)(F)F)N=N2)cc1
2 = CC(C)N1CC(=O)N(Cc2ccc(Cl)cc2)C2(CN(c3cccnc3)C2)C1=O
3 = CC(C)N1CC(=O)N(Cc2ccc(Cl)cc2)C(c2cccc(Cl)c2)C1=O (stereo not shown)
4 = O=C1C(C2COC2)N(Cc2ccc(F)cc2)C(=O)CN1c1ccc(Br)cc1F (stereo not shown)
Query: Order the 4 molecules from highest to lowest CDMF75 IC15. Form entry: ranked labels (order as requested).
Result: 3, 4, 2, 1

I = CC(C)N1CC(=O)N(Cc2ccc(Cl)cc2)C2(CN(c3ccnc(O)c3)C2)C1=O
II = CC(C)N1CC(=O)N(Cc2ccc(Cl)cc2)C2(CN(c3ccnc(C#N)c3)C2)C1=O
III = NC(=O)C12CC([C@H]3C(=O)N(c4ncc(Cl)cc4F)CC(=O)N3Cc3ccc(C(F)F)cc3)(C1)C2
Query: Reorder: CDMF75 IC15, max to min. The response must list the labels following the requested ordering.
Result: II, I, III
(II: 8.6 µM, I: 3.1 µM, III: 2.1 µM)

* * *

Tested on: bovine cardiac myofibrils
Experiment: Myofibril assay: PK/LDH-coupled steady-state ATPase activity of skinned bovine cardiac myofibrils
Type: biochemical
Details: Ca2+ activating to 75% of maximal rate
Method: To evaluate the effect of compounds on the ATPase activity of full-length cardiac myosin in the context of the native sarcomere, skinned myofibril assays were performed. […] Small molecule agents were assessed for their ability to inhibit the steady-state ATPase activity of bovine cardiac myofibrils using pyruvate kinase and lactate dehydrogenase (PK/LDH)-coupled enzyme system. This assay regenerates myosin-produced ADP into ATP by oxidizing NADH, producing an absorbance change at 340 nm. […]
Property Measured: CDMF75 IC15 (µM)

Some entries whose results are on file:
CCN1CC(=O)N(Cc2ccc(C(F)(F)F)cc2)C2(CN(c3ccc(C#N)cn3)C2)C1=O
33.3
N#Cc1ccc(N2CC(=O)N(Cc3ccc(C(F)(F)F)cc3)C3(CCOC3)C2=O)c(F)c1 (stereo not shown)
0.7
NC(=O)[C@H]1C[C@]2(C1)C(=O)N(c1ncc(Cl)cc1F)CC(=O)N2Cc1ccc(C(F)F)cc1 (single isomer, unassigned) [Compound 875A]
2.2
CC(C)N1CC(=O)N(Cc2ccc(Cl)cc2)C2(CN(c3nccs3)C2)C1=O
4.1
CCc1ccc(CN2C(=O)CN(c3ncc(Cl)cc3F)C(=O)C2C2COC2)cc1 (stereo not shown)
7.3

P = O=C1C(C23CC(O)(C2)C3)N(Cc2ccc(F)cc2)C(=O)CN1c1ncc(Cl)cc1F (stereo not shown)
Q = CNC(=O)N1CC2(C1)C(=O)N(Cc1ccc(C#N)cc1)CC(=O)N2Cc1ccc(C(F)(F)F)cc1
Query: Pick the one with the larger CDMF75 IC15: P vs Q State your choice using its label.
Result: P

* * *

Tested on: bovine cardiac myofibrils
Experiment: Myofibril assay: PK/LDH-coupled steady-state ATPase activity of skinned bovine cardiac myofibrils
Format: biochemical
Details: Ca2+ activating to 75% of maximal rate
Property Measured: CDMF75 IC15 (nM)

CC(=O)N1CC2(C1)C(=O)N(c1ccc(C#N)cc1F)CC(=O)N2Cc1ccc(C(F)(F)F)cc1
800
CCNC(=O)N1CCC2(C1)C(=O)N(C(C)C)CC(=O)N2Cc1ccc(Cl)cc1 (stereo not drawn)
10800
CNC(=O)N1CC2(C1)C(=O)N(c1ccc(Cl)cc1)CC(=O)N2Cc1ccc(C(F)(F)F)cc1
1100
O=C1CN(c2ncc(Cl)cc2F)C(=O)C2(CC(O)C2)N1Cc1ccc(F)cc1 (stereo not drawn)
1600

I = CNC(=O)N1CC2(C1)C(=O)N(c1ccc3oc(=O)ccc3c1)CC(=O)N2Cc1ccc(C(F)(F)F)cc1
II = CC(C)N1C(=O)C2(CN(c3ccc(F)cc3)C2)N(Cc2ccc(Cl)cc2)C(=O)C1C (stereo not drawn)
Query: Between the two listed entries I and II , which has its CDMF75 IC15 at the higher number? Your answer should be the label of the entry you select.
Result: II

P = CCOC(=O)C1CC2(C1)C(=O)N(c1ncc(Cl)cc1F)CC(=O)N2Cc1ccc(C(F)(F)F)cc1 (single isomer, unassigned) [Compound 859A]
Q = CC(C)N1CC(=O)N(Cc2ccc(Cl)cc2)C2(CCN(c3ccc(C#N)cn3)C2)C1=O (stereo not drawn)
R = CC(=O)N1CC2(C1)C(=O)N([C@H]1CC[C@H](C)CC1)CC(=O)N2Cc1ccc(C(F)(F)F)cc1
S = CC(C)N1CC(=O)N(Cc2ccc(Cl)cc2)C2(CN(c3ccc(F)cc3)C2)C1=O
Query: In this exercise, place the 4 compounds in ascending sequence of their recorded CDMF75 IC15. Reply format: the labels, ordered as requested.
Result: P, S, Q, R

I = CC(C)N1CC(=O)N([C@@H](C)c2ccc(C(F)(F)F)cc2)C2(CN(c3ccccc3)C2)C1=O
II = CNC(=S)N1CC2(C1)C(=O)N(c1ccc(C#N)cc1)CC(=O)N2Cc1ccc(C(F)(F)F)cc1
III = CC(C)N1CC(=O)N(Cc2ccc(Cl)cc2)C2(CN(c3ccnc(C(N)=O)c3)C2)C1=O
Query: Order the entries by their reported CDMF75 IC15, beginning at the minimum. Thanks in advance for listing the labels in the requested order.
Result: I, II, III

a = O=C1CN(c2ccc(Cl)cc2F)C(=O)C2(CCC2)N1Cc1ccc(C(F)(F)F)cc1
b = Cc1cc(N2CCC3(C2)C(=O)N(C(C)C)CC(=O)N3Cc2ccc(Cl)cc2)ccn1 (stereo not drawn)
Query: Rank a against b by their CDMF75 IC15 values and give the higher one. Pick one; state its label.
Result: b

* * *

System: bovine cardiac myofibrils
Assay: Myofibril assay: PK/LDH-coupled steady-state ATPase activity of skinned bovine cardiac myofibrils
Type: biochemical
Settings: Ca2+ activating to 75% of maximal rate
Property Measured: CDMF75 IC15 (µM)

NC(=O)C12CC(C3C(=O)N(c4ncc(Cl)cc4F)CC(=O)N3Cc3ccc(C(F)F)cc3)(C1)C2 (stereo not shown) [Compound 790]
4.9
CC(C)N1CC(=O)N(Cc2ccc(Cl)c(Cl)c2)C2(CCN(c3ccc(C(N)=O)cn3)C2)C1=O (stereo not shown) [Compound 91]
1.1

I = CC(C)N1CC(=O)N([C@H](C)c2ccc(C(F)(F)F)cc2)C2(CN(c3ccccc3)C2)C1=O [Compound 141]
II = Cc1cnc(C2CC3(C2)C(=O)N(c2ccc(C#N)cc2F)CC(=O)N3Cc2ccc(C(F)(F)F)cc2)o1 (stereo not shown) [Compound 436B]
Query: For this pair, I and II , which shows a numerically higher CDMF75 IC15? Which one? Tell me its label.
Result: I
(I: 10.7 µM, II: 0.3 µM)

src = patent US11414424B2
